assay: Pharmacokinetics of gefitinib after repeated oral Lonicera flos; type: in vivo, Sprague-Dawley rats; settings: male, Sprague-Dawley, rat, plasma, oral, gefitinib 10 mg/kg oral after Lonicera flos 300 mg/kg oral 15 days, 1 h
Experimental Readout: concentration at 1 h (ng/mL)
Field: numeric (ng/mL). Do not append units.

Quick note, concentration at 1 h for "COc1cc2ncnc(Nc3ccc(F)c(Cl)c3)c2cc1OCCCN1CCOCC1" landed at 645

---

assay: Pharmacokinetics of gefitinib after repeated oral Lonicera flos; type: in vivo, Sprague-Dawley rats; settings: male, Sprague-Dawley, rat, plasma, oral, 10 mg/kg, gefitinib 10 mg/kg oral, control (saline) rats, 3 h
Experimental Readout: concentration at 3 h (ng/mL)
Field: numeric (ng/mL). Do not append units.

Quick note, concentration at 3 h for "COc1cc2ncnc(Nc3ccc(F)c(Cl)c3)c2cc1OCCCN1CCOCC1" landed at 762

---

experiment: Pharmacokinetics of gefitinib after repeated oral Lonicera flos; assay type: in vivo, Sprague-Dawley rats; settings: male, Sprague-Dawley, rat, plasma, po, 10 mg/kg, gefitinib 10 mg/kg oral, Control, average
Experimental Readout: Cmax (ng/mL)
Field: numeric (ng/mL). Do not append units.

Quick note, Cmax for COc1cc2ncnc(Nc3ccc(F)c(Cl)c3)c2cc1OCCCN1CCOCC1 [Gefitinib, gefitinib] landed at 921

---

assay: Pharmacokinetics of gefitinib after repeated oral Lonicera flos; format: in vivo, Sprague-Dawley rats; details: male, Sprague-Dawley, rat, plasma, po, 10 mg/kg, gefitinib 10 mg/kg oral, Control, average
Experimental Readout: Tmax (h)
Field: numeric (h). Do not append units.

Quick note, Tmax for "COc1cc2ncnc(Nc3ccc(F)c(Cl)c3)c2cc1OCCCN1CCOCC1" landed at 3.55

---

test: Pharmacokinetics of gefitinib after repeated oral Lonicera flos; format: in vivo, Sprague-Dawley rats; settings: male, Sprague-Dawley, rat, plasma, oral, gefitinib 10 mg/kg oral after Lonicera flos 300 mg/kg oral 15 days, 3 h
Experimental Readout: concentration at 3 h (ng/mL)
Field: numeric (ng/mL). Do not append units.

Quick note, concentration at 3 h for COc1cc2ncnc(Nc3ccc(F)c(Cl)c3)c2cc1OCCCN1CCOCC1 [Gefitinib, gefitinib] landed at 531

---

assay: Pharmacokinetics of gefitinib after repeated oral Lonicera flos; assay type: in vivo, Sprague-Dawley rats; conditions: male, Sprague-Dawley, rat, plasma, oral, 10 mg/kg, gefitinib 10 mg/kg oral, control (saline) rats, 24 h
Experimental Readout: concentration at 24 h (ng/mL)
Field: numeric (ng/mL). Do not append units.

Quick note, concentration at 24 h for COc1cc2ncnc(Nc3ccc(F)c(Cl)c3)c2cc1OCCCN1CCOCC1 [Gefitinib, gefitinib] landed at 70

---

assay: Pharmacokinetics of gefitinib after repeated oral Lonicera flos; assay type: in vivo, Sprague-Dawley rats; details: male, Sprague-Dawley, rat, plasma, oral, 10 mg/kg, gefitinib 10 mg/kg oral, control (saline) rats, 10 h
Experimental Readout: concentration at 10 h (ng/mL)
Field: numeric (ng/mL). Do not append units.

Quick note, concentration at 10 h for "COc1cc2ncnc(Nc3ccc(F)c(Cl)c3)c2cc1OCCCN1CCOCC1" landed at 439
